System: transformed human keratinocyte cell line (FEP 1811)
experimentalProtocol: Clonogenic survival cell culture assay for radioprotective activity (12 Gy 137Cs gamma irradiation)
Type: cell-based
assayContext: 12 Gy; DMF=Dp/Dc at survival level Sm
measuredParameter: DMFm (dose modification factor at maximum protection)
Please give the numeric answer without any surrounding text.

1. COCCN1CCN(c2ccc3nc(-c4ccc5nc(-c6ccccn6)[nH]c5c4)[nH]c3c2)CC1 [Example 40]: 198
2. COc1cc2nc(-c3ccccn3)[nH]c2cc1-c1nc2ccc(N3CCN(C)CC3)cc2[nH]1 [Example 32]: 1.56
3. OC1CCCN(c2ccc3nc(-c4ccc5nc(-c6ccccn6)[nH]c5c4)[nH]c3c2)C1 (stereo not shown) [Example 26]: 1.90

Now, please, on to the next compound.
Requested read-out: DMFm (dose modification factor at maximum protection). Entry: c1ccc(-c2nc3ccc(-c4nc5ccc(NN6CCOCC6)cc5[nH]4)cc3[nH]2)nc1 [Example 42]
1.86
